The reported measurements were obtained from patent US11130803B2.

Target: T1, recombinant human GARP-proTGFβ1 complex (Homo sapiens, UniProt P01137)
T1 construct: made in house
T1 sequence (P01137 30-390): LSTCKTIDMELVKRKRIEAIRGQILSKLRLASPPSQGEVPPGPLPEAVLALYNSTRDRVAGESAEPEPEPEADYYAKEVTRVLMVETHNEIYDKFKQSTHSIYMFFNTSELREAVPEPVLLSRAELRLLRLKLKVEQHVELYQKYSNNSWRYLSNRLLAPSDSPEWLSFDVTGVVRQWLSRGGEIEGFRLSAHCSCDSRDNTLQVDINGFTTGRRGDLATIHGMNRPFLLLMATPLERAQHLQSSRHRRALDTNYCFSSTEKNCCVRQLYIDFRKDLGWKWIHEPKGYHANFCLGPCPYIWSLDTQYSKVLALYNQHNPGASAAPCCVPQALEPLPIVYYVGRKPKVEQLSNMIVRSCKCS
T1 sequence (Q14392 20-627 partner limits assumed): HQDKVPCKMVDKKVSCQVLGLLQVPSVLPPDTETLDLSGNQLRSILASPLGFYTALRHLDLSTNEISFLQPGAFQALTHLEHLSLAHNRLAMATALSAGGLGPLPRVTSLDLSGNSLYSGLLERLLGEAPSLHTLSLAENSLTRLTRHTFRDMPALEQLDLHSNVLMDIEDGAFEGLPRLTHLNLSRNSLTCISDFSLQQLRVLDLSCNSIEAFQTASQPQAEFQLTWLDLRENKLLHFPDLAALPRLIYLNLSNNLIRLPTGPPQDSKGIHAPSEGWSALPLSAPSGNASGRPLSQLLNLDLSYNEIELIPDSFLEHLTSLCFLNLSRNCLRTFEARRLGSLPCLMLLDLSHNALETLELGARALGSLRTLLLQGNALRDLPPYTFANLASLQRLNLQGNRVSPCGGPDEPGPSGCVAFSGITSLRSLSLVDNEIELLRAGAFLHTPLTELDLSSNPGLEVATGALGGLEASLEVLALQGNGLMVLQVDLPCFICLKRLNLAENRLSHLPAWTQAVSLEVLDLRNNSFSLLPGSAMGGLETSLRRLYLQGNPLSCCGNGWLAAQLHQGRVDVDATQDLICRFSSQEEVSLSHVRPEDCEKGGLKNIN
Assay: Octet (Biolayer Interferometry) in vitro kinetic binding
Conditions: in M
reported_property: (E) hGARP, Cell-associated proTGFb1 (KD)
Answers are plain numbers.

>>> recorded_measurement("Ab22: monoclonal antibody; VH SEQ ID NO: 130, VL SEQ ID NO: 15 (antibody, V domains shown) VH: EVQLVESGGGLVQPGGSLRLSCAASGFTFGSFSMNWVRQAPGKGLEWVSYIHSDASTIYYADSVKGRFTISRDNAKNSLYLQMNSLRAEDTAVYYCARGVLDYGDMLDPWGQGTLVTVSS VL: DIQMTQSPSSLSASVGDRVTITCQASQDITNYLNWYQQKPGKAPKLLIYDASNLETGVPSRFSGSGSGTDFTFTISSLQPEDIATYYCQQADNHPPWTFGGGTKVEIK")
"9.74E−10"

Here's the next entry for you.
Recorded result, Ab17: monoclonal antibody; VH SEQ ID NO: 248, VL SEQ ID NO: 241 (antibody, V domains shown) VH: EVQLLESGGGVVQPGGSLRLSCAASGFTFSSFAMTWVRQAPGKGLEWVSAISGSGAATYFADSVKGRFTISRDNSKNTLYLQMNSLRAEDTAVYYCARVSSGHWDFDYWGQGTLVTVSS VL: DIQLTQSPSSLSASVGDRVTITCRASQSISSYLNWYQQKPGKAPKLLIYAASNLQSGVPSRFSGSGSGTDFTLTISSLQPEDFATYYCQQTYTVPLTFGGGTKVEIK , (E) hGARP, Cell-associated proTGFb1 (KD): 8.62E−09
